Where these numbers come from: paper PMC9482650

# TARGET SYSTEM: LIMK2, P53671
# Sequence (P53671 143-248): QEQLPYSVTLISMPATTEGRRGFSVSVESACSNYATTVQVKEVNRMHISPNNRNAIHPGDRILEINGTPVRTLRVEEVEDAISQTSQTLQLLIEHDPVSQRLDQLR
# MEASUREMENT PROTOCOL: holdup assay
# Set-up: key: below the threshold = too weak to quantify, mostly under pKd 3.1 to 4
# APPLIED CONDITIONS: plain residues with an end cap or a label only (N-terminal biotin on a linker: ahx)
MEASURE: pKd

                       binder       endpoint_value
0  AKPQPVDSWV [ARVCF, O00192]  below the threshold
1  HSATSVHTSV [MTMR1, Q13613]  below the threshold
2  KEYDDELTFF [USH1C, Q9Y6N9]  below the threshold
